biological target: human toll like receptor 8 (hTLR8) (Homo sapiens); assay: hTLR8 cell functional assay (HEK-Blue hTLR8 SEAP reporter); details: HEK293 cells stably overexpressing hTLR8, SEAP reporter; geometric mean when tested more than once
Sequence (Q9NR97 27-1041): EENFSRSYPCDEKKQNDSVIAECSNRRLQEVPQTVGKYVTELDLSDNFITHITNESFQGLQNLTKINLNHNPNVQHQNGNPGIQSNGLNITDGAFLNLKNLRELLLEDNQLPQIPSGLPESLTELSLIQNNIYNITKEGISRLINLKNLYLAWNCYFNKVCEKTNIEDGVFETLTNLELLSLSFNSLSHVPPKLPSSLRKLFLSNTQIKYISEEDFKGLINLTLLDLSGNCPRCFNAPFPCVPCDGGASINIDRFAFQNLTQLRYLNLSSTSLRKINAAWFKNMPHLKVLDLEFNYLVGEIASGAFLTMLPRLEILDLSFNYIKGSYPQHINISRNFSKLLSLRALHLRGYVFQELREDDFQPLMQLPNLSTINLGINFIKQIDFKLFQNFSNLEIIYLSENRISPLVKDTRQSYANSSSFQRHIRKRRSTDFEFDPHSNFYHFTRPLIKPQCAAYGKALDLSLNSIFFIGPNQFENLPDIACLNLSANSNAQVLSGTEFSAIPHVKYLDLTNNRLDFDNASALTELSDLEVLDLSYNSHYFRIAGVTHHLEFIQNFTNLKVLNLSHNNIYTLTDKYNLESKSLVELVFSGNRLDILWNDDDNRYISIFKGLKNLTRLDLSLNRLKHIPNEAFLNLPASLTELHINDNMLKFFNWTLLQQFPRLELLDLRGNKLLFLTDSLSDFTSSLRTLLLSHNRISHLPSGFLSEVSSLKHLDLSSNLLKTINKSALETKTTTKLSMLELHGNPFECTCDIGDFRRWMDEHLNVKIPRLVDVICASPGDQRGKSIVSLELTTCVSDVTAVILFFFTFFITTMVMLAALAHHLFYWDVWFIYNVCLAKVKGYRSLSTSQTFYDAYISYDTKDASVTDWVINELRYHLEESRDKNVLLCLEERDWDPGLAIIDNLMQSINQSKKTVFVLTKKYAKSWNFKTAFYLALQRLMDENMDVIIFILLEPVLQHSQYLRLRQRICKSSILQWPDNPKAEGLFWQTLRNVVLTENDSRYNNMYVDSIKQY
OBSERVABLE: pEC50
Scale: pEC50 equals -log10([C]), with [C] in mol/L.

COMPOUND | TESTED_TARGET | pEC50
CCOCc1nc2c(N)nc3c(c2n1CC(C)(CO)CO)CCC3 [Example 4] | human toll like receptor 8 (hTLR8) (Homo sapiens) | 6.40
CCOCc1nc2c(N)nc(C)c(C)c2n1CC(CC)(CO)CO [Example 9] | human toll like receptor 8 (hTLR8) (Homo sapiens) | 5.84
CCCCc1nc2c(N)nc(C)c(C)c2n1CC(C)(CO)CO [Example 11] | human toll like receptor 8 (hTLR8) (Homo sapiens) | 6.80
CCCCCc1nc2c(N)nc3ccccc3c2n1CC(C)(CO)CO [Example 12] | human toll like receptor 8 (hTLR8) (Homo sapiens) | 6.72
CCc1nc2c(N)nc3ccccc3c2n1CC(C)(CO)CO [Example 15] | human toll like receptor 8 (hTLR8) (Homo sapiens) | 6.21

Looking up CCOCc1nc2c(N)nc(C)c(C)c2n1CC(C)(CO)COC (single isomer, unassigned) [Example 7] , I see its pEC50 listed as 4.78

Sure, the documented pEC50 for CCCCc1nc2c(N)nc3c(c2n1CC(C)(CO)CO)CCC3 [Example 14] is 6.61

The recorded pEC50 for entry COCCc1nc2c(N)nc3c(c2n1CC(C)(CO)CO)CCC3 [Example 17] equals 5.97

So, COCCc1nc2c(N)nc3ccccc3c2n1CC(C)(CO)CO [Example 19] ? Its pEC50 was 6.51

In plain terms, CCOCc1nc2c(N)nc3c(c2n1CC(C)(CO)CO)CCCC3 [Example 5] has a documented pEC50 of 6.56

Per the record, CCCCc1nc2c(N)nc3c(c2n1CC(C)(CO)CO)CCCC3 [Example 13] has pEC50 of 6.98

###

biological target: human toll like receptor 7 (hTLR7) (Homo sapiens, UniProt Q9NYK1); assay: hTLR7 cell functional assay (HEK-Blue hTLR7 SEAP reporter); details: HEK293 cells stably overexpressing hTLR7, SEAP reporter; geometric mean when tested more than once
Sequence (Q9NYK1 27-1049): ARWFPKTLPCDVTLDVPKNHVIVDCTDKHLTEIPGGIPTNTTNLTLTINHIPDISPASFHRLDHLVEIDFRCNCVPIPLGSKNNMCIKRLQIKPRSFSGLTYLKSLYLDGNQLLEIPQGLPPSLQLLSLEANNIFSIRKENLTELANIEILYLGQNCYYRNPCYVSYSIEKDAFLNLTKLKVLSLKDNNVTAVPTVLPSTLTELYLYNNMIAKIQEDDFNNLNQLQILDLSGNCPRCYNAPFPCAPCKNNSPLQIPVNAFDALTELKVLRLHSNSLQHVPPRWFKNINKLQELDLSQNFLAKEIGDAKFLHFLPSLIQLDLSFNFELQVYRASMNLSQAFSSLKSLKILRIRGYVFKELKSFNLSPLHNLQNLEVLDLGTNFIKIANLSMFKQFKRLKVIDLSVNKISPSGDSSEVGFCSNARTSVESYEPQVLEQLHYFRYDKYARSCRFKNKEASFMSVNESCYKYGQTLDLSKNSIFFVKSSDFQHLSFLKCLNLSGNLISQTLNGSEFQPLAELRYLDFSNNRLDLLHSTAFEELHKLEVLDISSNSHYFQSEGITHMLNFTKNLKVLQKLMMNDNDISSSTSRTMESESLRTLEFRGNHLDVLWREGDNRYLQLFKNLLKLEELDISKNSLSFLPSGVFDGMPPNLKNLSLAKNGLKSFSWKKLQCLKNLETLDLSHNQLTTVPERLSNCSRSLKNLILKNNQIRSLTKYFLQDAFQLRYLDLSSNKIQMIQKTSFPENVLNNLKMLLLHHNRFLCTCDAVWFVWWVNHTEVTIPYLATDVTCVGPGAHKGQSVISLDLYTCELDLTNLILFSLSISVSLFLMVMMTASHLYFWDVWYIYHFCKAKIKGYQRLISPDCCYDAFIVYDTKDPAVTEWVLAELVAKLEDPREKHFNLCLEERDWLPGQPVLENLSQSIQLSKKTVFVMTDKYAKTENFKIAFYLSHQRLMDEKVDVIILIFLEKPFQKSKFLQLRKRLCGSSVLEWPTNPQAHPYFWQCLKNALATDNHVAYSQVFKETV
Here, each record is paired with measured EC50 data.
Give the value, in units of µM, as a plain number.

The examples below pair each entry with its known result.
COMPOUND | EC50 (µM)
CCCCc1nc2c(N)nc3ccccc3c2n1CC(C)(CO)CO | 0.004
CCOCc1nc2c(N)nc3ccccc3c2n1CC(C)(CO)CO | 0.029
CCCCc1nc2c(N)nc(C)c(C)c2n1CC(C)(CO)CO | 0.013
CCc1nc2c(N)nc3ccccc3c2n1CC(C)(CO)CO | 0.075

Reported EC50 (human toll like receptor 7 (hTLR7) (Homo sapiens, UniProt Q9NYK1)) for entry "CCCc1nc2c(N)nc3ccccc3c2n1CC(C)(CO)CO" is 0.019

human toll like receptor 7 (hTLR7) (Homo sapiens, UniProt Q9NYK1) assay, compound "CCOCc1nc2c(N)nc(C)c(C)c2n1CC(CO)CO" , recorded EC50 = 0.644

Note to self: EC50 of "COCCc1nc2c(N)nc3c(c2n1CC(C)(CO)CO)CCC3" with human toll like receptor 7 (hTLR7) (Homo sapiens, UniProt Q9NYK1) was 0.156

Readout EC50 for CCOCc1nc2c(N)nc(C)c(C)c2n1CC(C)(CO)COC (single isomer, unassigned) [Example 6] , test system human toll like receptor 7 (hTLR7) (Homo sapiens, UniProt Q9NYK1), was 0.049

Lab note: compound "CCCCc1nc2c(N)nc3c(c2n1CC(C)(CO)CO)CCCC3" tested on human toll like receptor 7 (hTLR7) (Homo sapiens, UniProt Q9NYK1); recorded EC50 was 0.009

Considering "CCCCc1nc2c(N)nc3c(c2n1CC(C)(CO)CO)CCC3" , its EC50 with human toll like receptor 7 (hTLR7) (Homo sapiens, UniProt Q9NYK1) was recorded as 0.014

Result for "CCOCc1nc2c(N)nc3c(c2n1CC(C)(CO)CO)CCCC3" , tested on human toll like receptor 7 (hTLR7) (Homo sapiens, UniProt Q9NYK1), EC50: 0.042

Summary: "CCCCCc1nc2c(N)nc3ccccc3c2n1CC(C)(CO)CO" , human toll like receptor 7 (hTLR7) (Homo sapiens, UniProt Q9NYK1), EC50 = 0.009

The reported EC50 value, human toll like receptor 7 (hTLR7) (Homo sapiens, UniProt Q9NYK1), for "COCCc1nc2c(N)nc3c(c2n1CC(C)(CO)CO)CCCC3" reads 0.016

EC50 value, target or system human toll like receptor 7 (hTLR7) (Homo sapiens, UniProt Q9NYK1), for "CCOCc1nc2c(N)nc3c(c2n1CC(C)(CO)CO)CCC3" : 0.054

Reading of EC50 for "Cc1nc(N)c2nc(CC(F)(F)F)n(CC(C)(CO)CO)c2c1C" with human toll like receptor 7 (hTLR7) (Homo sapiens, UniProt Q9NYK1): 0.078

The measured EC50 that CCOCc1nc2c(N)nc(C)c(C)c2n1CC(C)(CO)COC (single isomer, unassigned) [Example 7] showed for human toll like receptor 7 (hTLR7) (Homo sapiens, UniProt Q9NYK1) is 0.103

For the compound "CCOCc1nc2c(N)nc(C)c(C)c2n1CC(C)(CO)CO" , the measured EC50 on human toll like receptor 7 (hTLR7) (Homo sapiens, UniProt Q9NYK1) was 0.054

Measured EC50 for this entry "CCOCc1nc2c(N)nc(C)c(C)c2n1CC(CC)(CO)CO" on human toll like receptor 7 (hTLR7) (Homo sapiens, UniProt Q9NYK1): 0.027

Lab note: compound "COCCc1nc2c(N)nc3ccccc3c2n1CC(C)(CO)CO" tested on human toll like receptor 7 (hTLR7) (Homo sapiens, UniProt Q9NYK1); recorded EC50 was 0.009

###

Quick reference for EC50 among some compounds
biological target: human toll like receptor 8 (hTLR8) (Homo sapiens); assay: hTLR8 cell functional assay (HEK-Blue hTLR8 SEAP reporter); details: HEK293 cells stably overexpressing hTLR8, SEAP reporter; geometric mean when tested more than once
Hi! Could you send only the number? It should be in µM, unit omitted.

Below are worked cases with known answers.
COMPOUND | TESTED_TARGET | OBSERVABLE | QUANTITATIVE_RESULT
CCCc1nc2c(N)nc3ccccc3c2n1CC(C)(CO)CO | human toll like receptor 8 (hTLR8) (Homo sapiens) | EC50 | 0.325
CCOCc1nc2c(N)nc(C)c(C)c2n1CC(C)(CO)CO | human toll like receptor 8 (hTLR8) (Homo sapiens) | EC50 | 0.811
CCOCc1nc2c(N)nc(C)c(C)c2n1CC(CO)CO | human toll like receptor 8 (hTLR8) (Homo sapiens) | EC50 | 2.55
CCOCc1nc2c(N)nc(C)c(C)c2n1CC(C)(CO)COC (single isomer, unassigned) [Example 6] | human toll like receptor 8 (hTLR8) (Homo sapiens) | EC50 | 6.4
CCOCc1nc2c(N)nc3ccccc3c2n1CC(C)(CO)CO | human toll like receptor 8 (hTLR8) (Homo sapiens) | EC50 | 0.194
CCCCc1nc2c(N)nc3ccccc3c2n1CC(C)(CO)CO | human toll like receptor 8 (hTLR8) (Homo sapiens) | EC50 | 0.092

For "Cc1nc(N)c2nc(CC(F)(F)F)n(CC(C)(CO)CO)c2c1C" the compound record lists EC50 as 8.02

The reported EC50 of the compound "COCCc1nc2c(N)nc3c(c2n1CC(C)(CO)CO)CCCC3" was 0.119
